# Assay target: T1, Avi/His-HuIL18BPa (recombinant human IL-18BP isoform A with Avi and poly-His tags) (human, biotinylated with BirA on the Avi tag in some assays)
# T1 construct: also called human IL-18BP-Avi-His
# T1 chain: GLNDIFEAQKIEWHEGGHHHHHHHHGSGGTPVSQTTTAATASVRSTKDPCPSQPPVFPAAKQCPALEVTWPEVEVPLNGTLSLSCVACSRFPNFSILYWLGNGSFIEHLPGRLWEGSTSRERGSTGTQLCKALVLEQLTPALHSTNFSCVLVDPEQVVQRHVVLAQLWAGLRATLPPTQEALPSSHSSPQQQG
# Test summary: blocking ELISA, competitor human IL-18
Measured attribute: blocking ELISA signal normalized to isotype control (=1)

Answered cases to consult:
I'd like to know its blocking ELISA signal normalized to isotype control (=1). The binder in question is anti-IL18BP antibody BP-12 (antibody, human IgG1, V domains shown) VH: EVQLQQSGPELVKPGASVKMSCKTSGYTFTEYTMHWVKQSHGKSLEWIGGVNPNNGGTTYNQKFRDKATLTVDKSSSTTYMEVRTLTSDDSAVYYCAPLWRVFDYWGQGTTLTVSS VL: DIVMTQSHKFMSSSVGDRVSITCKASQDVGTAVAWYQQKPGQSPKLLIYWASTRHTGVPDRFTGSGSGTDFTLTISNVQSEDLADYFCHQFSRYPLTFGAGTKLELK
0.117 ratio to isotype control

Moving on to the next binder: anti-IL18BP antibody BP-10 (antibody, human IgG1, V domains shown) VH: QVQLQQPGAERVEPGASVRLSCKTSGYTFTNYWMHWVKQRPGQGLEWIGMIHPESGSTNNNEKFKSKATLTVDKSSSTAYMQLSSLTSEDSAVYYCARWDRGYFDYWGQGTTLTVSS VL: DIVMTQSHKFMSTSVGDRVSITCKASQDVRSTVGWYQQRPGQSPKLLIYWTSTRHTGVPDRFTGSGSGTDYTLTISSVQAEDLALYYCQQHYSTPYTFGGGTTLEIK
0.067 ratio to isotype control

Moving on to the next binder: anti-IL18BP antibody BP-01 (antibody, human IgG1, V domains shown) VH: QVQLQQSGPEVVRPGVSVKISCKGSGYTFTDFAMYWVKQSHAKSLEWIGVISTDNGDTSYNQKFKGKATMTVDKSSSTAYMELDRLTSEDSAIYYCARSRGPFDYWGQGTALTVSS VL: DIVMTQSHKFKSTSVGDRVNITCKASQDVGTAVAWYQQKPGQSPKLLIYWASTRHIGVPDRFTGSGSGTDFTLTIRNVQSEDLADYFCQRYSSYPWTFGGGTKLEIK
0.076 ratio to isotype control

New cases:
I'd like to know its blocking ELISA signal normalized to isotype control (=1). The binder in question is anti-IL18BP antibody BP-08 (antibody, human IgG1, V domains shown) VH: QVQLQQPGAELVKPGASVKLSCKVSGYTFTSYWMHWVKQRPGQGLEWIGMIDPNSDSSRYNEKFKNRATLTADKSSSTAFMQFSSLTSEDSAVYYCARSRLGQDYWGQGTTLTVSS VL: DIVMTQSHKFMSTSVGDRVSITCKASQDVSTAVAWYQQKPGQSPKLLIYWASTRHTGVPDRFTGSESGTDYTLIISSVQAEDLALYYCQQHFSTPYTFGGGTKLEIK
0.133 ratio to isotype control
